// provenance: ChEMBL document CHEMBL1155242

Assay: Stability in human OVCAR-3 cells expressing androgen receptor assessed as compound degradation at 0.1 uCi/mL up to 4 hrs by silica gel instant thin layer chromatography
Format: ADME, cell-based
Conditions: read-out: Activity
endpoint: metabolised at 4 h, 0.1 uCi/mL (%)
Write down the numeric answer in % and omit the unit.

Name the recorded metabolised at 4 h, 0.1 uCi/mL for C[C@]12CCC(=O)C[C@@H]1CC[C@@H]1[C@@H]2CC[C@]2(C)[C@@H](OC(=O)CCC(=O)O[C@H]3C[C@H](n4cc([125I])c(=O)[nH]c4=O)O[C@@H]3CO)CC[C@@H]12 .
60

====

Target: Sex hormone-binding globulin (Oryctolagus cuniculus)
Sequence (P15196 whole entry): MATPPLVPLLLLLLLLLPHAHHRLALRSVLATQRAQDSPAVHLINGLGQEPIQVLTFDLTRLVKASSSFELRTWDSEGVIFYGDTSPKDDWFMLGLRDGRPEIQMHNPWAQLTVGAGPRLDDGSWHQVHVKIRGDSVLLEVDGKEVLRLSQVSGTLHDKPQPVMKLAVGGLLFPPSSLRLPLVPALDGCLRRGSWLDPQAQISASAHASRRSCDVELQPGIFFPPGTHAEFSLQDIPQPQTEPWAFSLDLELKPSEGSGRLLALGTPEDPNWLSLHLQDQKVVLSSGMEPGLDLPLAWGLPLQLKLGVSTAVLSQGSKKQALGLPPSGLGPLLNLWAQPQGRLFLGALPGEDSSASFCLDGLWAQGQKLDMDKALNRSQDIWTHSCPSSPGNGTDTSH
Test: Binding affinity to rabbit sex hormone binding globulin assessed as intact compound remaining at 10 to 20 uCi/mL after 60 mins by size-exclusion HPLC analysis
Type: ADME
Conditions: read-out: Stability
endpoint: remaining at 1 h

Could you share what remaining at 1 h was measured for C[C@]12CCC(=O)C[C@@H]1CC[C@@H]1[C@@H]2CC[C@]2(C)[C@@H](OC(=O)CCC(=O)O[C@H]3C[C@H](n4cc([125I])c(=O)[nH]c4=O)O[C@@H]3CO)CC[C@@H]12 , tested on Sex hormone-binding globulin (Oryctolagus cuniculus)?
> 84%

====

Assay: Chemical stability in RPMI-1640 serum-free medium assessed as compound hydrolysis at 12.2 uCi after 24 hrs by HPLC analysis
Type: physicochemical
Settings: read-out: Activity
endpoint: degraded at 24 h, 12.2 uCi (%)
Response body: numeric value in %, unit text excluded.

Requested field: degraded at 24 h, 12.2 uCi. Item: C[C@]12CCC(=O)C[C@@H]1CC[C@@H]1[C@@H]2CC[C@]2(C)[C@@H](OC(=O)CCC(=O)O[C@H]3C[C@H](n4cc([125I])c(=O)[nH]c4=O)O[C@@H]3CO)CC[C@@H]12
30

====

Test: Stability in mouse serum assessed as intact compound remaining at 10 to 20 uCi/mL after 60 mins by size-exclusion HPLC analysis
Assay type: ADME, cell-free
Conditions: read-out: Stability
endpoint: remaining at 1 h

Entry CCOC(=O)CCC(=O)O[C@H]1C[C@H](n2cc([125I])c(=O)[nH]c2=O)O[C@@H]1CO : reported remaining at 1 h = ?
< 2%

====

Test: Stability in human serum assessed as intact compound remaining at 10 to 20 uCi/mL after 60 mins by reversed phase HPLC analysis
Type: ADME, cell-free
Conditions: read-out: Stability
endpoint: remaining at 1 h (%)
Write it as a number; the unit % goes unstated.

// returns reported remaining at 1 h for input O=c1[nH]c(=O)n([C@H]2C[C@H](O)[C@@H](COP(=O)(O)O)O2)cc1[125I]
30
